# Test system: HepG2
# experimental-details: cytotoxicity call (relative viability < 0.9)
# condition-parameters: 10 µM
Screen size: about 39,000 compounds; about 3,300 (8.5%) were called active. The full list was thinned out, with actives kept by preference.
Choose one outcome from this list and give only that: True (active), False (inactive)

1. C[C@@H]1CN([C@@H](C)CO)C(=O)c2cc(NC(=O)Nc3ccc(F)cc3)ccc2O[C@@H]1CN(C)CC1CCCCC1
False

[ask] Hey, what did the test say about C[C@@H]1CN([C@H](C)CO)C(=O)c2cc(NC(=O)Nc3ccc(F)cc3)ccc2O[C@@H]1CN(C)CC1CCCCC1 ?
[reply] False

[ask] What is the recorded call for this molecule in the test? C[C@H](CO)N1C[C@H](C)[C@H](CN(C)CC2CCCCC2)Oc2ccc(NC(=O)Nc3ccc(C(F)(F)F)cc3)cc2C1=O
[reply] True

[ask] Assay outcome for C[C@@H]1CN([C@@H](C)CO)C(=O)c2cc(NC(=O)Nc3ccc(C(F)(F)F)cc3)ccc2O[C@@H]1CN(C)CC1CCCCC1 : what was it?
[reply] True

[ask] What outcome does the record of this test show for C[C@H]1CN([C@@H](C)CO)C(=O)c2cc(NC(=O)Nc3ccc(F)cc3)ccc2O[C@H]1CN(C)CC1CCCCC1 ?
[reply] False

[ask] Please state the recorded outcome for this molecule: C[C@@H]1CN([C@@H](C)CO)C(=O)c2c(c3ccccc3n2C)-c2ccccc2CO[C@@H]1CN(C)C(=O)Nc1ccccc1
[reply] False

[ask] # fetch the recorded call for COCCOC(=O)N1C(=O)[C@@]2(c3cc(C#Cc4ccc(OC)cc4)ccc31)[C@H](c1ccccc1OCCO)N1[C@H](c3ccccc3)[C@H](c3ccccc3)OC(=O)[C@H]1[C@@H]2C(=O)NC[C@H](O)c1ccccc1 here
[reply] False

###

# System: HepG2
# experimental-details: cytotoxicity call (relative viability < 0.9)
# condition-parameters: 10 µM
Among all 39,000 compounds or so, about 3,300 (8.5%) were called active. The sample as a whole holds a higher share of actives than the screen did.
metric: cytotoxicity call

Worked examples, 10 compounds total:
1) O=C(C[C@@H]1C[C@H]2c3cc(NC(=O)c4ccc5c(c4)OCO5)ccc3O[C@H]2[C@@H](CO)O1)NCCc1ccccc1
inactive
2) C[C@@H]1CCCCO[C@H](CN(C)C(=O)Nc2ccc(C(F)(F)F)cc2)[C@@H](C)CN([C@H](C)CO)C(=O)c2cc(NS(=O)(=O)c3cccs3)ccc2O1
inactive
3) COc1ccc([Si](C)(C)[C@H]2[C@H](CCO)O[C@@]3(C(=O)N(Cc4cccc(N5C(=O)c6cccc7cccc5c67)c4)c4ccccc43)[C@@H]2C)cc1
active
4) COc1ccc([Si](C)(C)[C@@H]2[C@@H](CCO)O[C@]3(C(=O)N(Cc4cccc(N5C(=O)c6cccc7cccc5c67)c4)c4ccccc43)[C@H]2C)cc1
active
5) C[C@@H]1CN([C@@H](C)CO)C(=O)c2cc(NS(=O)(=O)c3cccs3)ccc2O[C@@H](C)CCCCO[C@@H]1CN(C)C(=O)Nc1ccc(C(F)(F)F)cc1
inactive
6) COc1ccc([Si](C)(C)[C@@H]2[C@@H](CC(=O)N3CCC[C@H]3CO)O[C@]3(C(=O)N(Cc4cccc(N5C(=O)c6cccc7cccc5c67)c4)c4ccccc43)[C@H]2C)cc1
inactive
7) C[C@@H]1CN([C@H](C)CO)C(=O)c2cc(NC(=O)Cn3cnnn3)ccc2O[C@H]1CN(C)C(=O)NC1CCCCC1
inactive
8) C[C@H]1CCCCO[C@@H](CN(C)C(=O)Nc2ccccc2)[C@@H](C)CN([C@@H](C)CO)C(=O)c2cc(NS(=O)(=O)c3cccs3)ccc2O1
inactive
9) C[C@@H]1CN([C@@H](C)CO)C(=O)Cc2cc(NS(=O)(=O)c3ccccc3)ccc2O[C@@H]1CN(C)S(=O)(=O)c1ccc(F)cc1
inactive
10) COc1ccc([Si](C)(C)[C@H]2[C@H](CC(=O)N3Cc4ccccc4C[C@H]3CO)O[C@@]3(C(=O)N(Cc4ccc(N5C(=O)c6cccc7cccc5c67)cc4)c4ccccc43)[C@@H]2C)cc1
inactive

The measured cytotoxicity call associated with C[C@@H]1CCCCO[C@@H](CN(C)C(=O)Nc2ccc(C(F)(F)F)cc2)[C@H](C)CN([C@@H](C)CO)C(=O)c2cc(NS(=O)(=O)c3cccs3)ccc2O1 reads inactive

For this compound ( C[C@@H]1CCCCO[C@H](CN(C)C(=O)Nc2ccccc2)[C@@H](C)CN([C@@H](C)CO)C(=O)c2cc(NS(=O)(=O)c3cccs3)ccc2O1 ), measured cytotoxicity call is active

Measured cytotoxicity call of C[C@@H]1CN([C@H](C)CO)C(=O)c2cc(NS(=O)(=O)c3cccs3)ccc2O[C@@H](C)CCCCO[C@@H]1CN(C)C(=O)NC1CCCCC1 : active
